Origin of the recorded values: patent US20240336608A1

biological target: recombinant IL4I1 (Homo sapiens, UniProt Q96RQ9); test: IL4I1 Enzymatic Assay (Amplex Red/HRP coupled detection of H2O2, fluorescence); details: 1 nM recombinant IL4I1; four-hour pre-incubation with compound; 1 mM each Phe, Tyr, Trp; ten-point titration
Sequence (Q96RQ9 22-567): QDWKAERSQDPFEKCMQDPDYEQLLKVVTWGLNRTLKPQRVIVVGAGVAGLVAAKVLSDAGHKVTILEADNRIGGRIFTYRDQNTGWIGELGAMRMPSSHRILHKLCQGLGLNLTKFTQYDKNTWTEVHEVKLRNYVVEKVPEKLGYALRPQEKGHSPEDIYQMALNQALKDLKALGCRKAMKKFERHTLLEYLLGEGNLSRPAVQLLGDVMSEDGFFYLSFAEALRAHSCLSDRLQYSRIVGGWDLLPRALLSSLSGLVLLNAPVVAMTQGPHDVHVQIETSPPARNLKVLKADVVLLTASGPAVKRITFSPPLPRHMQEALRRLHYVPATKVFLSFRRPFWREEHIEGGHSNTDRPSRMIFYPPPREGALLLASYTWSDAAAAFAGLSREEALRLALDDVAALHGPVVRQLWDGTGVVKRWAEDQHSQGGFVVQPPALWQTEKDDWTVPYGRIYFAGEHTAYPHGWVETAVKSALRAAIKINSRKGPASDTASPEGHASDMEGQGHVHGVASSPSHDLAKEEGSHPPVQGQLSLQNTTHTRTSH
pEC50: −log10 of the molar value.
readout-type: pEC50

(a) CCn1cc(C(=O)NCc2nnc(-c3ccccc3)s2)cn1
(b) Cn1cc(C(=O)NCc2nnc(-c3ccc(O)cc3)s2)nn1
input: pEC50 comparison. Which is larger, a or b ? Could you answer with the label of the item you picked?
output: b

(1) Cc1n[nH]c(C)c1-n1cc(C(=O)NCc2nnc(-c3ccccc3)s2)nn1
(2) O=C(NCc1nnc(-c2ccccc2)s1)c1cn(C2CCCC(O)C2)nn1 (centres unmarked)
input: # query: argmin of pEC50 over 1 and 2 Could you answer with the label of the item you picked?
output: 2

(A) Cc1nc(C2COC2)ccc1-n1cc(C(=O)NCc2nnc(-c3ccccc3)s2)nn1
(B) O=C(NCc1nnc(-c2ccccc2)s1)c1cn(C(F)F)nn1
input: pEC50 comparison. Which is larger, A or B ? Could you answer with the label of the item you picked?
output: B

(I) Cc1ccc(-n2cc(C(=O)NCc3nnc(-c4ccccc4C)s3)nn2)c(C)n1
(II) N#CC1(Cn2cc(C(=O)NCc3nnc(-c4ccccc4)s3)nn2)CC1
(III) CCC(CO)(CO)n1cc(C(=O)NCc2nnc(-c3ccccc3)s2)nn1
input: Arrange the 3 molecules by rising pEC50, starting with the smallest. Give the labels in the order specified.
output: III, I, II
(III: 6.27, I: 7.24, II: 7.74)

----------
biological target: recombinant IL4I1 (Homo sapiens); assay: IL4I1 Enzymatic Assay (Amplex Red/HRP coupled detection of H2O2, fluorescence); conditions: 1 nM recombinant IL4I1; four-hour pre-incubation with compound; 1 mM each Phe, Tyr, Trp; ten-point titration
pEC50: −log10 of the molar value.
readout-type: pEC50

1) CC(C)Cn1cc(C(=O)NCc2nnc(-c3ccccc3)s2)nn1 [Example 88]	7.89

(1) O=C(NCc1cc(-c2ccccc2)no1)c1cn(CC(F)F)nn1 [Example 291]
(2) Cc1ccc(-n2cc(C(=O)NCc3nnc(-c4cccnc4)s3)nn2)c(C)n1 [Example 264]
(3) CC(CC(F)(F)F)n1cc(C(=O)NCc2nnc(-c3ccccc3)s2)nn1 (single isomer, unassigned) [Example 64]
input: Arrange the 3 molecules by rising pEC50, starting with the smallest. Give the labels in the order specified.
output: 2, 3, 1
(2: 6.32, 3: 7.03, 1: 7.92)

----------
Biological target: recombinant IL4I1 (Homo sapiens, UniProt Q96RQ9)
Assay: IL4I1 Enzymatic Assay (Amplex Red/HRP coupled detection of H2O2, fluorescence)
Details: 1 nM recombinant IL4I1; four-hour pre-incubation with compound; 1 mM each Phe, Tyr, Trp; ten-point titration
Source text: Interleukin 4 inducible protein 1 (IL4I1) is an L-amino oxidase that catalyzes the oxidation of aromatic residues (Phe, Trp and Tyr): L-amino acid+H2O+O2→2-oxo acid+NH3+H2O2. […] In this assay, the hydrogen peroxide generated by IL4I1 is then detected through a coupled reaction with Amplex Red (10-acetyl-3,7-dihydroxyphenoxazine) and […] (HRP) to produce Resorufin product that could be detected in the form of fluorescence signals. […]
readout-type: EC50 (nM)

# example entries with known answers
1. CC1(Cn2cc(C(=O)NCc3nnc(-c4ccccc4)s3)nn2)COC1 [Example 161]	22
2. O=C(NCc1nnc(-c2ccccc2)s1)c1cn(-c2cnccn2)nn1 [Example 311]	294
3. O=C(NCc1nnc(-c2ccccc2)s1)c1cn(CCCF)nn1 [Example 93]	8
4. Cc1csc(C(=O)NCc2nnc(-c3ccccc3)s2)c1 [Example 10]	10
5. O=C(NCc1nnc(-c2ccccc2)s1)c1cn(C2CS(=O)(=O)CC2O)nn1 (stereo not drawn) [Example 188]	155

(1) O=C(NCc1nnc(-c2ccccc2)s1)c1cn(C23CC(C2)C3)nn1 [Example 172]
(2) Cc1nc(C)c(-n2cc(C(=O)NCc3nnc(-c4ccccc4)s3)nn2)s1 [Example 212]
(3) CC(c1ccno1)n1cc(C(=O)NCc2nnc(-c3ccccc3)s2)nn1 (stereo not drawn) [Example 155]
input: Arrange the 3 compounds by rising EC50, starting with the smallest. Give the labels in the order specified.
output: 3, 1, 2

(I) O=C(NCc1nnc(-c2ccccc2)s1)c1cn(CC(O)C(F)(F)F)nn1 (stereo not drawn) [Example 127]
(II) Cc1ccc(-n2cc(C(=O)NCc3nnc(-c4ccc(Cl)cc4)s3)nn2)c(C)n1 [Example 113]
(III) Cc1cccn2cc(C(=O)NCc3nnc(-c4ccccc4)s3)nc12 [Example 13]
(IV) Cc1ccc(-n2cc(C(=O)NCc3cc(-c4ccccc4Cl)on3)nn2)c(C)n1 [Example 222]
input: Arrange the 4 compounds by rising EC50, starting with the smallest. Give the labels in the order specified.
output: I, IV, III, II
(I: 73 nM, IV: 172 nM, III: 341 nM, II: 838 nM)

(P) O=C1COC(Cn2cc(C(=O)NCc3nnc(-c4ccccc4)s3)nn2)CN1 (stereo not drawn) [Example 192]
(Q) Cc1ccc(-n2cc(C(=O)NCc3cc(-c4ccncc4)on3)nn2)c(C)n1 [Example 266]
(R) O=C(NCc1nnc(-c2ccccc2)s1)c1cc(C2CC2)on1 [Example 35]
(S) O=C(NCc1nnc(-c2ccccc2)s1)c1cn(C2CC(F)(F)C2)nn1 [Example 61]
(T) O=C(NCc1nnc(-c2ccccc2)s1)c1c[nH]nc1C(F)(F)F [Example 44]
input: Falling order of EC50, please. Give the labels in the order specified.
output: T, P, S, Q, R
(T: 770 nM, P: 264 nM, S: 68 nM, Q: 26 nM, R: 8 nM)

(A) Cc1cnc(-n2cc(C(=O)NCc3nnc(-c4ccccc4)s3)nn2)c(C)n1 [Example 270]
(B) Cn1cc(C(=O)NCc2cc(-c3ccccc3Cl)on2)nn1 [Example 225]
input: # query: argmin of EC50 over A and B Could you answer with the label of the item you picked?
output: A

(1) O=C(NCc1nnc(-c2ccncc2)s1)c1cn(C2CC2)nn1 [Example 243]
(2) Cc1c(C(=O)NCc2nnc(-c3ccccc3)s2)oc2ccccc12 [Example 53]
input: EC50 comparison. Which is larger, 1 or 2 ? Could you answer with the label of the item you picked?
output: 2
(2: 357 nM, 1: 23 nM)

(a) Cc1ccc(-n2cc(C(=O)NCc3cc(-c4ccccn4)on3)nn2)c(C)n1 [Example 238]
(b) Cc1ncc(-n2cc(C(=O)NCc3nnc(-c4ccccc4)s3)nn2)c(C)n1 [Example 280]
(c) O=C(NCc1nnc(-c2ccccc2)s1)c1cn(CC(O)C(F)F)nn1 (single isomer, unassigned) [Example 139]
(d) COC1CC(n2cc(C(=O)NCc3nnc(-c4ccccc4)s3)nn2)C1 (stereo not drawn) [Example 174]
(e) Cc1ccc(-n2cc(C(=O)NCc3ccc(-c4cc(F)ccc4F)nn3)nn2)c(C)n1 [Example 123]
input: Falling order of EC50, please. Give the labels in the order specified.
output: b, e, c, a, d
(b: 859 nM, e: 223 nM, c: 123 nM, a: 76 nM, d: 16 nM)

(A) Cc1ccc(-n2cc(C(=O)NCc3cc(-c4ccncc4)no3)nn2)c(C)n1 [Example 314]
(B) O=C(NCc1nnc(-c2ccccc2)s1)c1cn(CC2CCCCO2)nn1 (stereo not drawn) [Example 83]
input: # query: argmin of EC50 over A and B Could you answer with the label of the item you picked?
output: A
(A: 12 nM, B: 361 nM)

(a) CCn1cc(C(=O)NCc2nnc(-c3ccccc3)s2)nn1 [Example 72]
(b) Cc1ccc(-n2cc(C(=O)NCc3nnc(-c4ccccc4)s3)nn2)c(Br)n1 [Example 279]
input: EC50 comparison. Which is larger, a or b ? Could you answer with the label of the item you picked?
output: b
(b: 8 nM, a: 3 nM)

----------
target: recombinant IL4I1 (Homo sapiens); test: IL4I1 Enzymatic Assay (Amplex Red/HRP coupled detection of H2O2, fluorescence); conditions: 1 nM recombinant IL4I1; four-hour pre-incubation with compound; 1 mM each Phe, Tyr, Trp; ten-point titration
readout-type: EC50 (nM)

1) CC(C)(C)OC(=O)N1CC(n2cc(C(=O)NCc3nnc(-c4ccccc4)s3)nn2)C1	9
2) O=C(NCc1nnc(-c2ccccc2)s1)c1cn(C2(CF)CC2)nn1	25
3) C[C@@H](CO)Cn1cc(C(=O)NCc2nnc(-c3ccccc3)s2)nn1	17
4) Cn1cc(C(=O)NCc2cc(-c3ccc(Cl)cc3)no2)nn1	648
5) O=C(NCc1nnc(-c2ccccc2)s1)c1cn([C@H]2COC[C@@H]2O)nn1	107
6) COc1ccc(-n2cc(C(=O)NCc3nnc(-c4ccccc4)s3)nn2)cn1	12

(A) CN1CC(n2cc(C(=O)NCc3nnc(-c4ccccc4)s3)nn2)CC1=O (stereo not drawn)
(B) Cc1nc(C#N)ccc1-n1cc(C(=O)NCc2nnc(-c3ccccc3)s2)nn1
(C) Cn1nnc(C(=O)NCc2nnc(-c3ccccc3)s2)c1F
input: Arrange the 3 molecules by rising EC50, starting with the smallest. Give the labels in the order specified.
output: B, A, C
(B: 10 nM, A: 139 nM, C: 301 nM)
